Molecular target: T1, CD38 immobilised on Biacore CM5 chip (UniProt P28907 43-300, limits assumed)
T1 construct: also called DOM11
Experiment: Biacore, CD38 immobilised
attribute_measured: Kd

IN: Give its Kd value. Item: DOM11-3-2 (other) DIQMTQSPSSLSASVGDRVTITCRASQNIDSRLSWYQQKPGKAPKLLIYRTSVLQSGVPSRFSGSGSGTDFTLTISSLQPEDFATYYCQQWDMFPLMFGQGTKVEIKR
OUT: 130 to 160 nM

IN: Next binder up: DOM11-30-1 (other) DIQMTQSPSSLSASVGDRVTITCRASLKIENDLAWYQQKPGKAPKLLIYYTSILQSGVPSRFSGSGSGTDFTLTISSLQPEDFATYYCQQRRYAPATFGQGTKVEIKR
OUT: 19 nM

IN: Next binder up: DOM11-30 (other, Anti-CD38 dAb monomer) DIQITQSPSSLSASVGDRITITCRASQKIENDLAWYQQKPGKAPKLLIYYTSILQSGVPSRFSGSGSGTDFTLTISSLQPEDFATYYCQQRRYVPATFGQGTKVEIKR
OUT: 190 to 230 nM

IN: Next binder up: DOM11-3-1 (other) DIQMTQSPSSLSASVGDRVTITCRASHNIDSRLSWYQQKPGKAPKLLIYRASVLQSGVPSRFRGSGSGTDFTLTISSLQPEDFATYYCQQWDMFPLSFGQGTKVEIKR
OUT: 62 nM

IN: Next binder up: DOM11-30-2 (other) DIQMTQSPSSLSASVGDRVTITCRTSQKIENDLAWYQQKPGKAPKLLIYYTSILQSGVPSRFSGSGSGTDFTLTISSLQPEDFATYYCQQRRYVPATFGQGTKVEIKR
OUT: 62 to 76 nM

IN: Next binder up: DOM11-30-3 (other) DIQMTQSPSSLSASVGDRVTITCRASQKIENDLAWYQQKPGNAPKLLIYYTSILHSGVPSRFSGSGSGTDFTLTISSLQPEDFATYYCQQRRYVPATFGQGTKVEIKR
OUT: 86 to 93 nM

Values from patent US20100021473A1
